B1: CDC25A (parent)
chain: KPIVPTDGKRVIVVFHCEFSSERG

- Variants of: B1
- assay.remarks: protein stability index of a GFP-peptide fusion (GPS, HEK-293T) (PSI 1-6); higher = more stable;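 also: lentivirally expressed fusions sorted by FACS into six bins by GFP to DsRed ratio, PSI derived from sequencing read proportions per bin multiplied by bin number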
- test.conditions: c terminus: a fixed tail appended
Class 1: protein stability index at least 2. Class -1: protein stability index below 2.

Field: example entries. Status: answers known.
1) D7N    1
2) G8V    1
3) R10N    1

[Q] Is reported protein stability index greater than or equal to 2 here: E22I
[A] 1

[Q] Is reported protein stability index greater than or equal to 2 here: E18A
[A] 1

[Q] Is reported protein stability index greater than or equal to 2 here: K1W
[A] 1

Recorded values, source the supplement of paper PMC10567573.
